target: MERTK (UniProt Q12866); test: phosphorylation enrichment, bacterial display (enrichment ratio); higher = better substrate or ligand; peptides without Tyr show the background;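 note: 11-residue human phosphosite peptides and single-mutation variants displayed on the E. coli surface, counted by deep sequencing, each peptide's frequency after selection divided by its frequency in the unselected input library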;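 note: frequency after pTyr selection over input frequency; kinase dosed for 20-30% of maximal phosphorylation in three min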
Sequence (Q12866 whole entry, looked up): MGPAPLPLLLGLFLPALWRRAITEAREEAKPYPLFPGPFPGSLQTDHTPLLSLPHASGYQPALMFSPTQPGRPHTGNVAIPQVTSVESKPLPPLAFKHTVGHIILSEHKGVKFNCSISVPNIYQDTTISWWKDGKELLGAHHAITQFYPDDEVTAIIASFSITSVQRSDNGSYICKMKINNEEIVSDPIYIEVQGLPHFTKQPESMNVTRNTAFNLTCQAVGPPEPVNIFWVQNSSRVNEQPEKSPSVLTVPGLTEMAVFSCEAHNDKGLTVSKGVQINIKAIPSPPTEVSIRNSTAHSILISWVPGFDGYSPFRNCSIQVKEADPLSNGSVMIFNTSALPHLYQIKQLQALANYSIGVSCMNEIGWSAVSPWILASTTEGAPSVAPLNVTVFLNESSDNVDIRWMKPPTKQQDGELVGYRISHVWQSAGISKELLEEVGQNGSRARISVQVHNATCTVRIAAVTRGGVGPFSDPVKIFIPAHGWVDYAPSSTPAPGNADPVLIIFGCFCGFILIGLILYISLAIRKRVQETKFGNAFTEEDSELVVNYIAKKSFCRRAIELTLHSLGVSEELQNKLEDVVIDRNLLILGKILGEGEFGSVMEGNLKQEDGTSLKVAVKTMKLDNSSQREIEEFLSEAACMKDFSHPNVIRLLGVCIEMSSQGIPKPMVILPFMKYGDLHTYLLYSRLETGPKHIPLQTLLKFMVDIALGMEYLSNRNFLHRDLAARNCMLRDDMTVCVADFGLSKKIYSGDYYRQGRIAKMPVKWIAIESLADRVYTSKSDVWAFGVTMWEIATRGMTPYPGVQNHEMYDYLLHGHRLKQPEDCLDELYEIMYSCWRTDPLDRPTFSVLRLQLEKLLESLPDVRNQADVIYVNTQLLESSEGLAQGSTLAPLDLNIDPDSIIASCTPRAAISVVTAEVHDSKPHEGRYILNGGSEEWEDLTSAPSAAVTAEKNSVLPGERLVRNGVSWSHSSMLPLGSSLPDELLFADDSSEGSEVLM
Measured phosphorylation enrichment of individual entries

Some sequences with known phosphorylation enrichment results, for comparison:
>  <Residue string>
TGEKLYQRKEF [ZNF283_Y627]

>  <Experimental value>
0.477

$$$$
>  <Residue string>
AFSLKYDQQTQ [SYTL4_Y366_E367D]

>  <Experimental value>
0.406

$$$$
>  <Residue string>
SVVVPYEPPEI [TP53_Y220_V225I]

>  <Experimental value>
0.37

$$$$
>  <Residue string>
IPGVEYLVSII [TNC_Y1775]

>  <Experimental value>
0.409

$$$$
>  <Residue string>
IHHIDYFKKTT [FGFR1_Y653_YF]

>  <Experimental value>
0.444

$$$$
>  <Residue string>
QITQVCGFYDE [PPP2CA_Y127_Y127C]

>  <Experimental value>
0.522

$$$$

IN: # get_value(readout='phosphorylation enrichment', item= AACQHYGVHTC [NR4A2_Y275_R278H] )
OUT: 0.406

IN: # get_value(readout='phosphorylation enrichment', item= RNEAFYDTFST [EFCAB3_Y372_S370A] )
OUT: 14.4

IN: # get_value(readout='phosphorylation enrichment', item= TENAGYYFQVS )
OUT: 1.29

IN: # get_value(readout='phosphorylation enrichment', item= VNYGAYINNFK [GLB1_Y488_D491N] )
OUT: 0.429

IN: # get_value(readout='phosphorylation enrichment', item= SGSFRYGSSCE [SELE_Y390] )
OUT: 0.388

IN: # get_value(readout='phosphorylation enrichment', item= FRVAGYETQGG [TIA1_Y383_YF] )
OUT: 0.437

IN: # get_value(readout='phosphorylation enrichment', item= KEGSAYGSQSV [NFKB2_Y868_D865G] )
OUT: 0.436

IN: # get_value(readout='phosphorylation enrichment', item= ALKKPYGVLFK [RPF2_Y59_YF] )
OUT: 0.528
